B1: Sis1-WT [yeast] / full-length Rnq1 [yeast] (parent complex)
chain 1: MVKETKLYDLLGVSPSANEQELKKGYRKAALKYHPDKPTGDTEKFKEISEAFEILNDPQKREIYDQYGLEAARSGGPSFGPGGPGGAGGAGGFPGGAGGFSGGHAFSNEDAFNIFSQFFGGSSPFGGADDSGFSFSSYPSGGGAGMGGMPGGMGGMHGGMGGMPGGFRSASSSPTYPEEETVQVNLPVSLEDLFVGKKKSFKIGRKGPHGASEKTQIDIQLKPGWKAGTKITYKNQGDYNPQTGRRKTLQFVIQEKSHPNFKRDGDDLIYTLPLSFKESLLGFSKTIQTIDGRTLPLSRVQPVQPSQTSTYPGQGMPTPKNPSQRGNLIVKYKVDYPISLNDAQKRAIDENF
chain 2: MDTDKLISEAESHFSQGNHAEAVAKLTSAAQSNPNDEQMSTIESLIQKIAGYVMDNRSGGSDASQDRAAGGGSSFMNTLMADSKGSSQTQLGKLALLATVMTHSSNKGSSNRGFDVGTVMSMLSGSGGGSQSMGASGLAALASQFFKSGNNSQGQGQGQGQGQGQGQGQGQGSFTALASLASSFMNSNNNNQQGQNQSSGGSSFGALASMASSFMHSNNNQNSNNSQQGYNQSYQNGNQNSQGYNNQQYQGGNGGYQQQQGQSGGAFSSLASMAQSYLGGGQTQSNQQQYNQQGQNNQQQYQQQGQNYQHQQQGQQQQQGHSSSFSALASMASSYLGNNSNSNSSYGGQQQANEYGRPQQNGQQQSNEYGRPQYGGNQNSNGQHESFNFSGNFSQQNNNGNQNRY

# Variants of: B1
# assay.summary: ELISA; 400 ng denatured FL Rnq1 immobilized; Sis1 at 20 nM; detection with Sis1-specific antibody; parent: 240; read off a plot
property.label: response

Problem: // returns reported response for input chain 1 N56L
Result: ~60 Abs 450nm

Problem: Give its response value. Item: chain 1 S49V
Result: ~130 Abs 450nm

Problem: Which measured response value corresponds to chain 1 E53K ?
Result: ~140 Abs 450nm

Problem: Value lookup for response; key = chain 1 E53A
Result: ~79 Abs 450nm

Hello, the source for this data is paper PMC12756002, in case you need it.
